Target: CXCR1 (Homo sapiens, UniProt P25024)
Construct: purchased Promega (in-house HiBiT-GPCR construct library, NanoBRET)
Sequence (P25024 whole entry): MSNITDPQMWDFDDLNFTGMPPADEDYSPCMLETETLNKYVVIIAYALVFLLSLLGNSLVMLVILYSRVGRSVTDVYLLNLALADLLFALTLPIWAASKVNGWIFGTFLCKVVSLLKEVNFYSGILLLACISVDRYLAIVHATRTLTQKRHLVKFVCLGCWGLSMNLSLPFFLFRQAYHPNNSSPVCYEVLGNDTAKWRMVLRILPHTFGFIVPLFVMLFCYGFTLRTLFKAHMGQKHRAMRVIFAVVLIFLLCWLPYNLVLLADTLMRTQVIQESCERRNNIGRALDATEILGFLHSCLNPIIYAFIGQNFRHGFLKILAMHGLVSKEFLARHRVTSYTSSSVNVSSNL
Experiment: NanoBRET screen HiBiT-CXCR1 in HEK293
Format: binding
Details: CXCR1; tracer 1μM
Parameter NanoBRET Fold Response: see the listing below.
Property: NanoBRET Fold Response

Molecule	Recorded result
O=C(CCOCCOCCOCCOCCNC(=O)CCc1ccc2n1[B-](F)(F)[N+]1=C(c3ccc[nH]3)C=CC1=C2)NCCCN1CCN(C2=Nc3ccccc3Oc3ccc(Cl)cc32)CC1	0.94
Cc1nc2n(c(=O)c1CCN1CCC(c3noc4cc(F)ccc34)CC1)CCCC2OC(=O)NCCOCCOCCOCCOCCNC(=O)CCc1ccc2n1[B-](F)(F)[N+]1=C(c3ccc[nH]3)C=CC1=C2 (stereo not drawn)	0.91
N#CN=C(NCCCOc1cccc(CN2CCCCC2)c1)NCCNC(=O)CCOCCOCCOCCOCCNC(=O)CCc1ccc2n1[B-](F)(F)[N+]1=C(c3ccc[nH]3)C=CC1=C2	0.99
